As shown below, each of these molecules has a reported remaining activity at 10 µM value.
Molecular target: human GnRH receptor (Homo sapiens)
Construct: The cDNA for the human GnRH receptor is cloned into the plasmid expression vector, pcDNA 3; expressed in transfected cells; host or cells: HEK 293 cells, stably transfected (pcDNA 3); membrane preparation
Sequence (P30968 whole entry): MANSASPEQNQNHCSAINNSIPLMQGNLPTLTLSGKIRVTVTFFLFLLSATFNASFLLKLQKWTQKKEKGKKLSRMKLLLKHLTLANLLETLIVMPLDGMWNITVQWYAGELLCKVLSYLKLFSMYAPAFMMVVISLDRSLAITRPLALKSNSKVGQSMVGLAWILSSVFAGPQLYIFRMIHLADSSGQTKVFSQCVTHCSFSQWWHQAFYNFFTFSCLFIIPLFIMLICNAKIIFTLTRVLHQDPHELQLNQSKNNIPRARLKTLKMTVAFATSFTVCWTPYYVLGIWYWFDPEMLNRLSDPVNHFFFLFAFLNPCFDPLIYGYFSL
Test: GnRH receptor competitive radioligand binding assay (125I-GnRH-A, HEK 293 cell membranes)
Conditions: compound at 10 μM; crude compounds; 125I-GnRH-A; lower value = higher inhibition; read-out: % Remaining 1st Test (percent of specific binding remaining)

>  <Molecule>
CC(=O)N(Cc1cc2c(cc1C)C(C)(C)CCC2(C)C)CC1CCC(CNC(=N)N)CC1 (stereo not shown)

>  <Unit Abbrev>
%

>  <remaining activity at 10 µM>
53

$$$$
>  <Molecule>
N=C(N)NCC1CCCC(CN(Cc2cnc3ccccc3c2)C(=O)c2cccc3ccccc23)C1 (stereo not shown)

>  <Unit Abbrev>
%

>  <remaining activity at 10 µM>
47

$$$$
>  <Molecule>
N=C(N)NCC1CCCC(CN(Cc2ccc(OCc3ccccc3)c(OCc3ccccc3)c2)C(=O)c2ccccc2)C1 (stereo not shown)

>  <Unit Abbrev>
%

>  <remaining activity at 10 µM>
49

$$$$
>  <Molecule>
N=C(N)NCCCCN(CC12CC=CCC1C1CC=CCC1O2)C(=O)c1ccc2ccccc2c1 (stereo not shown)

>  <Unit Abbrev>
%

>  <remaining activity at 10 µM>
35

$$$$
>  <Molecule>
N=C(N)NCc1ccc(CN(CC23CC=CCC2C2CC=CCC2O3)C(=O)c2ccccc2)cc1 (stereo not shown)

>  <Unit Abbrev>
%

>  <remaining activity at 10 µM>
42

$$$$
>  <Molecule>
N=C(N)NCC1CCCC(CN(Cc2ccc3c(c2)OCCO3)C(=O)c2ccc3ccccc3c2)C1 (stereo not shown)

>  <Unit Abbrev>
%

>  <remaining activity at 10 µM>
50

$$$$
>  <Molecule>
CC(=O)N(Cc1cccc(Oc2ccc(Cl)cc2)c1)CC1CCC(CNC(=N)N)CC1 (stereo not shown)

>  <Unit Abbrev>
%

>  <remaining activity at 10 µM>
59

$$$$
>  <Molecule>
Cc1cc2c(cc1CN(CC1CCCC(CNC(=N)N)C1)C(=O)c1ccc3ccccc3c1)C(C)(C)CCC2(C)C (stereo not shown)

>  <Unit Abbrev>
%

>  <remaining activity at 10 µM>
49

$$$$
>  <Molecule>
Cc1cc2c(cc1CN(Cc1ccc(CNC(=N)N)cc1)C(=O)c1cccc3ccccc13)C(C)(C)CCC2(C)C

>  <Unit Abbrev>
%

>  <remaining activity at 10 µM>
55

$$$$
>  <Molecule>
COCC(=O)N(Cc1cc2c(cc1C)C(C)(C)CCC2(C)C)CC1CCC(CNC(=N)N)CC1 (stereo not shown)

>  <Unit Abbrev>
%

>  <remaining activity at 10 µM>
46

$$$$
>  <Molecule>
N=C(N)NCc1ccc(CN(CC23CC=CCC2C2CC=CCC2O3)C(=O)c2ccc(Cl)nc2)cc1 (stereo not shown)

>  <Unit Abbrev>
%

>  <remaining activity at 10 µM>
51

$$$$
>  <Molecule>
CC(C)(C)c1ccc(CN(CCCCNC(=N)N)C(=O)c2cccc3ccccc23)cc1

>  <Unit Abbrev>
%

>  <remaining activity at 10 µM>
48

$$$$
>  <Molecule>
N=C(N)NCc1ccc(CN(Cc2ccc(OCc3ccccc3)c(OCc3ccccc3)c2)C(=O)c2ccc(Cl)nc2)cc1

>  <Unit Abbrev>
%

>  <remaining activity at 10 µM>
60

$$$$
>  <Molecule>
Cc1cc2c(cc1CN(CC1CCCC(CNC(=N)N)C1)C(=O)c1ccccc1)C(C)(C)CCC2(C)C (stereo not shown)

>  <Unit Abbrev>
%

>  <remaining activity at 10 µM>
56

$$$$
>  <Molecule>
CCCCC(CC)C(=O)N(Cc1cc2c(cc1C)C(C)(C)CCC2(C)C)CC1CCC(CNC(=N)N)CC1 (stereo not shown)

>  <Unit Abbrev>
%

>  <remaining activity at 10 µM>
59

$$$$
>  <Molecule>
Cc1cc2c(cc1CN(CC1CCCC(CNC(=N)N)C1)C(=O)c1ccco1)C(C)(C)CCC2(C)C (stereo not shown)

>  <Unit Abbrev>
%

>  <remaining activity at 10 µM>
-2

$$$$
